Listing of recorded GI50 by entry.
Test system: HCT-15 colon
Assay: NCI tumour cell line growth inhibition, 48 h

Use these answered entries as a reference point.
query_smiles=O=C(/C=C\c1ccnc2ccccc12)c1ccc([N+](=O)[O-])cc1 reported="2.55 µM"
query_smiles=CC(=O)N1CC(F)(F)c2c(Sc3ncc(N4CCC5(CC4)COC[C@H]5N)nc3N)cccc21 reported="24 µM"

Consider the record given below.
What measured GI50 goes with O=C1/C(=C/c2cccs2)CCC/C1=C\c1cccs1 ? > 100 µM

====

Test system: NCI-H23 lung
Experiment: NCI tumour cell line growth inhibition, 48 h; in the data active = GI50 below about 0.43 µM; inactive = the rest
Pick one: active, inactive

Known results for compounds:
compound="COc1cc(C2C(C#N)=C(N)OC3=C2C(=O)c2ccccc2C3=O)cc(OC)c1OC (stereo not drawn)" target_system="NCI-H23 lung" assigned_label=inactive
compound="NC(CSC(c1ccccc1)(c1ccccc1)c1ccc2ccccc2c1)C(=O)O (stereo not drawn)" target_system="NCI-H23 lung" assigned_label=active

Kindly review the next compound as well.
Each compound tested received a call. Report the one for COc1ccc(/C=C2\N=C3SC=C(N)N3C2=O)cc1 . inactive

====

System: UACC-257 melanoma
Experiment: NCI tumour cell line growth inhibition, 48 h; in the data active = GI50 below about 0.43 µM; inactive = the rest
Pick one: 1 (active), 0 (inactive)

Known results for molecules:
molecule=CC(C)(C)CC(C)(C)c1ccc(OCCOCCSC(=N)N)cc1 target_system="UACC-257 melanoma" assigned_label=0
molecule="COc1ccc(C(O)c2cc3c(N)c(C(=O)Nc4cccc(Br)c4)sc3nc2C)cc1 (configuration not stated)" target_system="UACC-257 melanoma" assigned_label=0
molecule=Oc1c(CN2CCCC2)cc(COCc2ccccc2)c2cccnc12 target_system="UACC-257 melanoma" assigned_label=0
molecule=COc1ccc([C@H]2O[C@@H](CO)C[C@]2(O)c2ccc(OC)cc2)cc1 target_system="UACC-257 melanoma" assigned_label=0
molecule=N#Cc1nc(-c2ccccc2)oc1S(=O)(=O)N1CCOCC1 target_system="UACC-257 melanoma" assigned_label=0
molecule=CC(=O)N1CC(F)(F)c2c(Sc3ncc(N4CCC5(CC4)COC[C@H]5N)nc3N)cccc21 target_system="UACC-257 melanoma" assigned_label=0

Kindly review the next molecule as well.
Each molecule tested received a call. Report the one for C[Se]C(=O)CC1=C2C=C(F)C=CC2/C(=C\c2ccc(S(C)=O)cc2)C1C (configuration not stated) . 1

====

Test system: RXF 393 renal
Assay: NCI tumour cell line growth inhibition, 48 h
Measured Attribute: TGI (µM)
API: value field is a number in µM; no unit string.

query_smiles=COC1=C(OC)CCC(/C(C#N)=C/c2ccc(OC)c(OC)c2)=C1 measured_attribute=TGI reported=92.9
query_smiles=S=C(Nc1ccc(Br)cn1)NC12CC3CC(CC(C3)C1)C2 measured_attribute=TGI reported=37
query_smiles=Clc1nc2c(-c3cccs3)ncnc2n1Cc1ccccc1 measured_attribute=TGI reported=51.2
query_smiles=C=CCn1c(=O)c(C)cn(/C(=C/C(=O)OCC)C(=O)OCC)c1=O measured_attribute=TGI reported=28.2
query_smiles=CSc1c(C#N)c2n(c3ccccc3[n+]2C)c2ncccc12 measured_attribute=TGI reported=37.2

Which TGI is reported with RXF 393 renal for this entry: CCN1/C(=C/C(C)=C/c2sc3ccccc3[n+]2CC)Sc2ccccc21 ? 1.59

Which TGI is reported with RXF 393 renal for this entry: CN(/N=C\c1ccc2ccccc2c1)C1=NCCCCN1 ? 42.6

Which TGI is reported with RXF 393 renal for this entry: COc1ccc(NC(=O)c2cc(OC)c(OC)c(OC)c2)cc1O ? 83.9

Which TGI is reported with RXF 393 renal for this entry: CCSC1=CC(=O)c2ccccc2C1=O ? 4.54

====

Tested on: NCI-H522 lung
Experiment: NCI tumour cell line growth inhibition, 48 h
Listing of recorded TGI by entry.

molecule=Cc1cc(=Nc2ccc3c(c2)c(N)cc(C)[n+]3C)nc(N)n1C measured_attribute=TGI reported="> 100 µM"
molecule="CC[C@@H]1OC2(C)CC(S(=O)(=O)c3ccccc3)CC1O2 (stereo partly specified)" measured_attribute=TGI reported="> 100 µM"
molecule=CC(=O)Oc1cccc2c1C(=O)c1c(OC(C)=O)cc(C)cc1C2=O measured_attribute=TGI reported="> 100 µM"
molecule=Fc1ccc(-c2ncn(C3CCNCC3)c2-c2ccnc(Oc3cccc(F)c3)n2)cc1 measured_attribute=TGI reported="> 25 µM"
molecule=C#CCOC(=O)c1ccccc1OC(C)=O measured_attribute=TGI reported="> 100 µM"
molecule=Nc1cccc(OCc2nc(N)nc(N)c2-c2ccc(Cl)cc2)c1 measured_attribute=TGI reported="> 100 µM"
molecule="CSCCC(NC(c1ccccc1)c1ccccc1)[P+](=O)O (stereo unspecified)" measured_attribute=TGI reported="> 100 µM"
molecule=O=c1cccccc1NCCCCNc1cccccc1=O measured_attribute=TGI reported="> 100 µM"
molecule=COc1ccc(NC2=NCCO2)c2ccccc12 measured_attribute=TGI reported="> 10 µM"
molecule=CCOC(=O)c1c(SCCO)n(-c2ccccc2)c(=S)n(-c2ccccc2)c1=O measured_attribute=TGI reported="> 100 µM"

Consider the record given below.
What measured TGI goes with COc1ccc(C2S/C(=C\c3ccc(OC)cc3OC)C(=O)N2NC(=O)Cc2ccccc2)cc1 (stereo unspecified) ? > 100 µM

====

Tested on: DU-145 prostate
Assay: NCI tumour cell line growth inhibition, 48 h
Listing of recorded TGI by entry.

query_smiles=O=[N+]([O-])C1(C2([N+](=O)[O-])CCCC2)CCCC1 target_system="DU-145 prostate" measured_attribute=TGI reported="> 100 µM"
query_smiles=NC(=O)N(O)c1cccc(Br)c1 target_system="DU-145 prostate" measured_attribute=TGI reported="> 100 µM"

Consider the record given below.
What measured TGI goes with CC(=O)c1cn(-c2ccc(Cl)cc2)c(=O)c2c(N)n[nH]c12 ? > 100 µM

====

System: NCI-H226 lung
Assay: NCI tumour cell line growth inhibition, 48 h
Lab note: anything with TGI at or over 40 µM counts as Met; the rest go in Not met.

compound="CCNCC(O)c1ccc(N)c([N+](=O)[O-])c1 (configuration not stated)" assigned_label=Met

Reported TGI at or above 40 µM? CN(Cc1cnc2nc(N)nc(N)c2n1)c1ccc(C(=O)NC(CCC(=O)O)C(=O)O)cc1 (configuration not stated) Met

Reported TGI at or above 40 µM? CCOC(=O)c1c(SCCO)n(-c2ccccc2)c(=S)n(-c2ccccc2)c1=O Met

Reported TGI at or above 40 µM? COc1ccc2c(c1)CC[C@@H]1C2CC[C@]2(C)C(=O)NC(=O)CC12 (some centres not stated) Met

====

Listing of recorded TGI by entry.
System: OVCAR-5 ovarian
Experiment: NCI tumour cell line growth inhibition, 48 h
API: value field is a number in µM; no unit string.

Use these answered entries as a reference point.
molecule=COc1ccc(/C=C2\COc3ccc(-c4ccccc4)cc3C2=O)cc1O target_system="OVCAR-5 ovarian" measured_attribute=TGI unit_of_measurement=µM reported=14.7
molecule=C=CCn1c(=O)c(C)cn(/C(=C/C(=O)OCC)C(=O)OCC)c1=O target_system="OVCAR-5 ovarian" measured_attribute=TGI unit_of_measurement=µM reported=30.2
molecule=COc1ccc(/C=C2\N=C3SC=C(N)N3C2=O)cc1 target_system="OVCAR-5 ovarian" measured_attribute=TGI unit_of_measurement=µM reported=12
molecule=O=C1c2cc(CCl)sc2C(=O)c2ccsc21 target_system="OVCAR-5 ovarian" measured_attribute=TGI unit_of_measurement=µM reported=3.31
molecule=O=[As](O)(O)c1ccc(Cc2ccc([As](=O)(O)O)cc2)cc1 target_system="OVCAR-5 ovarian" measured_attribute=TGI unit_of_measurement=µM reported=4.65

Consider the record given below.
What measured TGI goes with COc1cc(CC2c3cc(OC)c(OC)cc3CCN2C)c(Oc2cc3c(cc2OC)-c2c(OC)c(OC)c(OC)c4c2C(C3)N(C)CC4)cc1OC (configuration not stated) ? 30.6

====

Listing of recorded TGI by entry.
System: SF-268 CNS
Assay: NCI tumour cell line growth inhibition, 48 h

Use these answered entries as a reference point.
query_smiles=O=C(/C=C\c1ccnc2ccccc12)c1ccc([N+](=O)[O-])cc1 measured_attribute=TGI reported="> 82.8 µM"
query_smiles=C[N+]1(C)CN(c2ccccc2)C2(CCN(CCCC(=O)c3cccs3)CC2)C1=O measured_attribute=TGI reported="> 100 µM"

Consider the record given below.
Which TGI is reported with SF-268 CNS for this entry: CN(O)C(=O)Cc1ccccc1 ? > 100 µM

====

Test system: A549 NSCLC
Test: NCI tumour cell line growth inhibition, 48 h
Listing of recorded TGI by entry.
API: value field is a number in µM; no unit string.

Use these answered entries as a reference point.
compound=Oc1c(CN2CCCC2)cc(COCc2ccccc2)c2cccnc12 measured_attribute=TGI reported=14.1
compound="Fc1ccccc1C1CC(C(c2ccccc2)c2ccccc2)=Nc2ccccc2S1 (stereo unspecified)" measured_attribute=TGI reported=46.4

What measured TGI goes with CCN1/C(=C/C(C)=C/c2sc3ccccc3[n+]2CC)Sc2ccccc21 ? 1.42

What measured TGI goes with C=C(Cl)C(Cl)(CBr)CCC(Cl)C(C)(C)Cl (stereo unspecified) ? 12.7

What measured TGI goes with NC(CSC(c1ccccc1)(c1ccccc1)c1ccc2ccccc2c1)C(=O)O (stereo unspecified) ? 26.4

What measured TGI goes with CC/C=C\CCC/C=C1/C(=O)C=C[C@@H]1C/C=C\CCCC(=O)O ? 32.7
